Source: patent US20250382344A1

# measured-target: human GLP-1 receptor (human, UniProt P43220 24-463)
# test-name: cell-based or functional assay
*1 amine or outer side, *2 acyl side, *3 side chain or, on linkers, in order; H or OH if unused. Where no end group is shown, it is not given here. Side-chain parts run from the residue outwards. [ ]: non-standard residue; d: D form. The star is where a group is joined. C20 diacid = O=C(O)CCCCCCCCCCCCCCCCCCC(=O)*; C18 diacid = O=C(O)CCCCCCCCCCCCCCCCC(=O)*; γGlu = O=C(O)[C@H](CCC(=O)[*:2])N[*:1]; Aib = CC(C)(N)C(=O)O
value-type: EC50, CreLuc reporter, 0.5% hP

INSERT INTO results (binder, value_type, reported_value) VALUES
  ('Y[Aib]EGTFTSDYSI[Aib]LEEEAQ[Aib]AFVRHLINK([γGlu-γGlu-γGlu-γGlu-C18 diacid])[Aib]TRQRY-NH2 [Compound 25]', 'EC50, CreLuc reporter, 0.5% hP', '0.7 nM'),
  ('YXEGTFTSDYSIXLEKQAQXAFVRHLINKITRQRY (Aib at 2, 13, 20; Lys29 epsilon-amino acylated with C18DA-gGlu-gGlu-gGlu-gGlu-gGlu; C-terminal amide) [Compound 41]', 'EC50, CreLuc reporter, 0.5% hP', '0.9 nM'),
  ('Y[Aib]EGTFTSDYSIALEKQAQ[Aib]AFVRHLINK([γGlu-γGlu-γGlu-γGlu-γGlu-γGlu-C20 diacid])[Aib]TRQRY-NH2 [Compound 29]', 'EC50, CreLuc reporter, 0.5% hP', '5.5 nM'),
  ('YXEGTFTSDYSIXLEKEAQXAFVRHLINKXTRQRY (Aib at 2, 13, 20, 30; Lys29 epsilon-amino acylated with C20DA-gGlu-gGlu-gGlu-gGlu-gGlu-gGlu-eLys; C-terminal amide) [Compound 28]', 'EC50, CreLuc reporter, 0.5% hP', '8 nM'),
  ('YXEGTFTSDYSIXLEKQAQXEFVRHLINKLTRQRY (Aib at 2, 13, 20; Lys29 epsilon-amino acylated with C18DA-gGlu-gGlu-gGlu-gGlu-gGlu-AHX; C-terminal amide) [Compound 45]', 'EC50, CreLuc reporter, 0.5% hP', '0.5 nM');
